Tested on: Hepatitis C virus
Experiment: Inhibition of Hepatitis C virus 1b J4 recombinant NS5B Cdelta 21 RNA dependent RNA polymerase overexpressed in Escherichia coli BL21 (DE3) by RdRp primer-dependent transcription assay
Set-up: species or system Hepatitis C virus subtype 1b
Quantity Name: IC50 (µM)
Your answer should be a plain number; it is taken to be in µM.

Previously resolved entries follow.
# Compound, IC50, µM
records = [
    ("CC(=O)N1c2cccc(O)c2NC2=C(C(=O)CC(C)(C)C2)C1c1ccc(OCc2ccccc2)cc1Cl (single isomer, unassigned; 7a)", 0.05),
    ("CC(=O)N1c2ccccc2NC2=C(C(=O)CC(C)(C)C2)C1c1ccc(OCc2ccccc2)c(Cl)c1 (single isomer, unassigned; 4a)", 1),
    ("CC(=O)N1c2ccccc2NC2=C(C(=O)CC(C)(C)C2)C1c1ccc(OCc2ccccc2)cc1Cl (single isomer, unassigned; 5a)", 0.33),
    ("CC(=O)N1c2ccccc2NC2=C(C(=O)CC(C)(C)C2)C1c1ccc(OCc2ccccc2)cc1 (single isomer, unassigned; 3b)", 86.7),
    ("CC(=O)N1c2ccccc2NC2=C(C(=O)CC(C)(C)C2)C1c1ccc(OCc2ccccc2)c(Cl)c1 (single isomer, unassigned; 4b)", 35.9),
    ("CC(=O)N1c2cccc(O)c2NC2=C(C(=O)CC(C)(C)C2)C1c1ccc(OCc2ccccc2)cc1Cl (single isomer, unassigned; 7b)", 12.5),
    ("CC(=O)N1c2ccccc2NC2=C(C(=O)CC(C)(C)C2)C1c1ccc(OCc2ccccc2)cc1 (single isomer, unassigned; 3a)", 1),
]

Now take the following compound into account.
*Q* Please look up its IC50: CC(=O)N1c2ccccc2NC2=C(C(=O)CC(C)(C)C2)C1c1ccc(OCc2ccccc2)cc1Cl (single isomer, unassigned; 5b)
*A* 83.1

----------
Measurement Target: Translocator protein (Homo sapiens, UniProt P30536)
Sequence (P30536 whole entry): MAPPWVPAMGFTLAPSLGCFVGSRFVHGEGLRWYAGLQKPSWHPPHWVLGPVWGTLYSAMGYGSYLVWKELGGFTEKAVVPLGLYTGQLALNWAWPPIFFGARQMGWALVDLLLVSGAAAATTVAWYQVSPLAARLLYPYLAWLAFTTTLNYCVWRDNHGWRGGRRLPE
Quantity Name: IC50

*Q* Please look up its IC50: CC(=O)N1c2cccc(O)c2NC2=C(C(=O)CC(C)(C)C2)C1c1ccc(OCc2ccccc2)cc1Cl (single isomer, unassigned; 7a)
*A* > 30 µM

----------
Experiment: Cytotoxicity against human HepG2 cells after 72 hrs by resazurin assay
Assay type: cell-based
Experimental Parameters: HepG2 cells
Quantity Name: CC50 at 72 h (µM)
Your answer should be a plain number; it is taken to be in µM.

*Q* Please look up its CC50 at 72 h: CC(=O)N1c2cccc(O)c2NC2=C(C(=O)CC(C)(C)C2)C1c1ccc(OCc2ccccc2)cc1Cl (single isomer, unassigned; 7a)
*A* 31.2

----------
// values below are reported pIC50
System: Hepatitis C virus
Experiment: Inhibition of Hepatitis C virus 1b J4 recombinant NS5B Cdelta 21 RNA dependent RNA polymerase overexpressed in Escherichia coli BL21 (DE3) assessed as [alpha-33P]UTP incorporation by RdRp primer-independent transcription assay
Design: species or system Hepatitis C virus subtype 1b
pIC50 is defined as minus the log10 of a concentration measured in mol/L.

Previously resolved entries follow.
# Molecule, Numeric Result
rows = [
    ("CC(=O)N1c2ccccc2NC2=C(C(=O)CC(C)(C)C2)C1c1ccc(OCc2ccccc2)c(Cl)c1 (single isomer, unassigned; 4a)", 6.05),
    ("CC(=O)N1c2cccc(O)c2NC2=C(C(=O)CC(C)(C)C2)C1c1ccc(OCc2ccccc2)cc1Cl (single isomer, unassigned; 7a)", 7.30),
    ("CC(=O)N1c2cccc(O)c2NC2=C(C(=O)CC(C)(C)C2)C1c1ccc(OCc2ccccc2)cc1Cl (single isomer, unassigned; 7b)", 4.73),
    ("CC(=O)N1c2ccccc2NC2=C(C(=O)CC(C)(C)C2)C1c1ccc(OCc2ccccc2)cc1 (single isomer, unassigned; 3b)", 4.10),
]

Now take the following molecule into account.
*Q* Please look up its pIC50: CC(=O)N1c2ccccc2NC2=C(C(=O)CC(C)(C)C2)C1c1ccc(OCc2ccccc2)cc1 (single isomer, unassigned; 3a)
*A* 6.27

----------
Experiment: Cytotoxicity against CMV-Luc transfected human HuH7 cells after 5 days
Format: cell-based, Huh-7
Experimental Parameters: CMV-Luc transfected HuH7 cells
// values below are reported CC50 at 120 h
Your answer should be a plain number; it is taken to be in µM.

Previously resolved entries follow.
# Molecule, Quantity Unit, CC50 at 120 h
data = [
    ("CC(=O)N1c2ccccc2NC2=C(C(=O)CC(C)(C)C2)C1c1ccc(Cl)cc1Cl (stereo unspecified)", "µM", 32),
    ("COc1ccc(C2C3=C(CC(C)(C)CC3=O)Nc3ccccc3N2C(C)=O)cc1OCc1ccccc1 (stereo unspecified)", "µM", 32),
    ("CC(=O)N1c2ccccc2NC2=C(C(=O)CC(C)(C)C2)C1c1ccc(OCc2ccccc2)c(Cl)c1 (stereo in doubt; 4)", "µM", 40.2),
    ("CC(=O)N1c2ccccc2NC2=C(C(=O)CC(C)(C)C2)C1c1ccc(OCc2ccccc2)cc1Cl (stereo in doubt; 5)", "µM", 35.5),
    ("CC(=O)N1c2ccccc2NC2=C(C(=O)CC(C)(C)C2)C1c1ccc(OCc2ccccc2)cc1 (stereo in doubt; 3)", "µM", 32),
]

Now take the following molecule into account.
*Q* Please look up its CC50 at 120 h: CC(=O)N1c2cccc(O)c2NC2=C(C(=O)CC(C)(C)C2)C1c1ccc(OCc2ccccc2)cc1Cl (stereo in doubt; 7)
*A* 13.4

----------
Measurement Target: DNA polymerase subunit gamma-1 (Homo sapiens, UniProt P54098)
Sequence (P54098 whole entry): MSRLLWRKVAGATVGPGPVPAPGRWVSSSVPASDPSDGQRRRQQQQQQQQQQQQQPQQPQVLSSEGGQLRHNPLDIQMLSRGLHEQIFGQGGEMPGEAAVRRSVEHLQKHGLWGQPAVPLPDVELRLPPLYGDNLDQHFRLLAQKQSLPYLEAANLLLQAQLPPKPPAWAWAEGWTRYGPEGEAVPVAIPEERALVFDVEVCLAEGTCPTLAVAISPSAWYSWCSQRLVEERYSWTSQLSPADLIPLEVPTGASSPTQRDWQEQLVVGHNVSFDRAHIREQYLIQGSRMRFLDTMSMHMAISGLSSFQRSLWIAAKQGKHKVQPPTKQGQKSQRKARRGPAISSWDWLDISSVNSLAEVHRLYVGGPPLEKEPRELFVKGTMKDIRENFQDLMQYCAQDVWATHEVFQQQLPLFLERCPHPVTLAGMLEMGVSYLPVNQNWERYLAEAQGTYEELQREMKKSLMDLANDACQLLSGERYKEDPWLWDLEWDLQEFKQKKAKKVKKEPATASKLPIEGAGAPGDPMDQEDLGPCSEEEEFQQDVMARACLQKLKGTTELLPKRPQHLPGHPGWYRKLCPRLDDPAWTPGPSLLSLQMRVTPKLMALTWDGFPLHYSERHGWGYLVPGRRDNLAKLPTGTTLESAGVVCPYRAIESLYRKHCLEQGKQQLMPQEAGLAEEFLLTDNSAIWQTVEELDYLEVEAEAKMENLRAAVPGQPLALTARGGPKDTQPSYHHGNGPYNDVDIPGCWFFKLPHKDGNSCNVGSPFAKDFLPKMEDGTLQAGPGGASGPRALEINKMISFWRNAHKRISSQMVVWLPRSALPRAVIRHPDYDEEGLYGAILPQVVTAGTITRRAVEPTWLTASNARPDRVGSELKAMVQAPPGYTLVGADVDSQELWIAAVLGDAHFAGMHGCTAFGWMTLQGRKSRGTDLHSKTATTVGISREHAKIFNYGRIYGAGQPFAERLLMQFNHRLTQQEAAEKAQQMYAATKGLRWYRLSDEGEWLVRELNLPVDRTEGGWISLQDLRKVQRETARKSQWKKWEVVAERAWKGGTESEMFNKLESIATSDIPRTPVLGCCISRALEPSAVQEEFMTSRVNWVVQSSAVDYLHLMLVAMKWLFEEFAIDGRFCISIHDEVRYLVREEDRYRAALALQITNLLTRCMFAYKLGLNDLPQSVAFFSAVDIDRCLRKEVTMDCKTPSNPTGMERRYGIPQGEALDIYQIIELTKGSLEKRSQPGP
Experiment: Inhibition of human DNA polymerase gamma
Quantity Name: IC50

# Molecule, IC50
measured = [
    ("COc1ccc(C2C3=C(CC(C)(C)CC3=O)Nc3ccccc3N2C(C)=O)cc1OCc1ccccc1 (configuration not stated)", "> 100 µM"),
]

Now take the following molecule into account.
*Q* Please look up its IC50: CC(=O)N1c2ccccc2NC2=C(C(=O)CC(C)(C)C2)C1c1ccc(Cl)cc1Cl (configuration not stated)
*A* > 100 µM

----------
Experiment: Cytotoxicity against human HuH7 cells after 5 days by resazurin assay
Assay type: cell-based, Huh-7
Experimental Parameters: huh-7, 120 h, 120 h
Quantity Name: CC50
Write the figure, then the unit, nothing else.

*Q* Please look up its CC50: CC(=O)N1c2cccc(O)c2NC2=C(C(=O)CC(C)(C)C2)C1c1ccc(OCc2ccccc2)cc1Cl (single isomer, unassigned; 7b)
*A* 23.8 µM
